Numbers sourced from the Kinase Knowledgebase extract (Sharma et al. 2016).

Observed IC50 for UniProtKB P00533, reported per entry below.
Sequence (P00533 whole entry, looked up): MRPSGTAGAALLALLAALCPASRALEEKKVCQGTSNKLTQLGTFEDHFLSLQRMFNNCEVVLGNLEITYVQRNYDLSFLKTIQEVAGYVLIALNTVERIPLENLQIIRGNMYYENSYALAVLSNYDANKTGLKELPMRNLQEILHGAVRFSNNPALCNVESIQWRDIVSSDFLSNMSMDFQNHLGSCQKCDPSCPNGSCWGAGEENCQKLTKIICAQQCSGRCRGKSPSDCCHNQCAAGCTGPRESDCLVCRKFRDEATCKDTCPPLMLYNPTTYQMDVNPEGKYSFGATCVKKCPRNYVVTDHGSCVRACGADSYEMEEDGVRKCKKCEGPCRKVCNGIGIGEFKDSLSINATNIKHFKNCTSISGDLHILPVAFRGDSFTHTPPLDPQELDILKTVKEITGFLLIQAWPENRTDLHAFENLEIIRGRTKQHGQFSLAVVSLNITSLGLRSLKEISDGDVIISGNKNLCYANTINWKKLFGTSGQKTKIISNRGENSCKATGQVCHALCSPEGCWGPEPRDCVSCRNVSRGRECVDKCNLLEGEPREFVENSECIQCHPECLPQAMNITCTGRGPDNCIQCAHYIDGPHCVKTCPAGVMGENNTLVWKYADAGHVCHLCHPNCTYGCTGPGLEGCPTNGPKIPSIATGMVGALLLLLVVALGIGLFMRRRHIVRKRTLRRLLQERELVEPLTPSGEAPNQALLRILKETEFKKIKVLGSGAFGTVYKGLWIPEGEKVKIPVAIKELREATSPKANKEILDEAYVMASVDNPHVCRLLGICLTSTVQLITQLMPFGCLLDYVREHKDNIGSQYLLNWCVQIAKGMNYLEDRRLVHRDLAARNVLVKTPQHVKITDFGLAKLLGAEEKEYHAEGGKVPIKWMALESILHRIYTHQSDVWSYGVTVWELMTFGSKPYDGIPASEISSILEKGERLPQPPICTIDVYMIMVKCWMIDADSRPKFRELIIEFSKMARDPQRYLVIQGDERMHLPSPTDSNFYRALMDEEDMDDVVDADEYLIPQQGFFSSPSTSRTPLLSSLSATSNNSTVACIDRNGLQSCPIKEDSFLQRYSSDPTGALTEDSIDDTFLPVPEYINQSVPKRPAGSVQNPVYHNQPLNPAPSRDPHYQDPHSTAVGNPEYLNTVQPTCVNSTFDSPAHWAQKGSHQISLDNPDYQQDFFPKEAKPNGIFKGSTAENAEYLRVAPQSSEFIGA

Take a look at these entries with their results.
INSERT INTO measurements (compound, test_value) VALUES
  ('NC(=O)c1cccc(Nc2ncnc(Nc3cc(-c4ccco4)n[nH]3)n2)c1', '< 0.4 µg/mL'),
  ('Nc1nc2ccccc2n1-c1ncnc(Nc2ccc(-c3cnco3)cc2)n1', '0.4 to 2.4 µg/mL');

# input Record COc1ccc(Nc2ncnc(Nc3ccc4c(c3)CCC4)n2)cc1OC : what is its IC50 with UniProtKB P00533?
# output 0.4 to 2.4 µg/mL

# input Record Cc1cccc(Nc2ncnc(Nc3ccc4c(cnn4Cc4ccccc4)c3)n2)c1 : what is its IC50 with UniProtKB P00533?
# output < 0.4 µg/mL

# input Record COc1cc(Nc2ncnc(Nc3ncncn3)n2)cc(OC)c1OC : what is its IC50 with UniProtKB P00533?
# output > 4.5 µg/mL
